# Measured On: JAK1 (Homo sapiens (Human))
# Sequence (P23458 875-1153): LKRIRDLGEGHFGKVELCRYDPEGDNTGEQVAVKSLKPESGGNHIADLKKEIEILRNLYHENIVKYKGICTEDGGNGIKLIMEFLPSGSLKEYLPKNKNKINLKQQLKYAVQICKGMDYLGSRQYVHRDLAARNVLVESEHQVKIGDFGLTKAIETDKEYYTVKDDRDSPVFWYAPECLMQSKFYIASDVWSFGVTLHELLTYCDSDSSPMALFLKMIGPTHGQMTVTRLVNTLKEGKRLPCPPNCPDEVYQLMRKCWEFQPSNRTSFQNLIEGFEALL
# Test Method Notes: Jak Biochemical HTRF Assay (JAK1)
# Experimental Parameters: recombinant GST-tagged catalytic domain, [ATP] 31.8 μM, unit not given (compound concentrations tested given in nM)
Recorded Endpoint: IC50 (nM)

Known results for compounds:
N#C[C@H]1CCOC[C@@H]1n1nc(Nc2ccc(C(N3CCCC3)C(F)(F)F)cc2)c2c(=O)[nH]ccc21 (single isomer, unassigned) [Example 1-42]    0.05
N#C[C@H]1CCOCC1n1nc(Nc2ccc(C(O)(c3ccccn3)C(F)(F)F)cc2)c2c(=O)[nH]ccc21 (single isomer, unassigned) [Example 1-97]    0.14
CC(C)CNC(c1ccc(Nc2nn([C@H]3COCC[C@@H]3C#N)c3cc[nH]c(=O)c23)cc1)C(F)(F)F (single isomer, unassigned) [Example 1-90]    0.21
CC1(C)CN(S(=O)(=O)c2ccc(Nc3nn([C@H]4COCC[C@@H]4C#N)c4cc[nH]c(=O)c34)cc2)CCO1    0.22

a. C[S+]([O-])c1cc(Nc2nn([C@H]3COCC[C@@H]3C#N)c3cc[nH]c(=O)c23)ccc1Cl (mixture of isomers)
b. N#C[C@H]1CCOC[C@@H]1n1nc(Nc2ccc(C(NC3CCC3)C(F)(F)F)cc2)c2c(=O)[nH]ccc21 (single isomer, unassigned) [Example 1-92]
c. CS(=O)(=O)c1ccc(Nc2nn([C@@H]3COCC[C@H]3C#N)c3cc[nH]c(=O)c23)cc1
# input Sort by IC50, descending. Write out the labels following the order that was asked for.
# output c, a, b
(c: 7.06 nM, a: 1.75 nM, b: 0.13 nM)

a. Cc1cc(Nc2nn([C@H]3COCC[C@@H]3C#N)c3cc[nH]c(=O)c23)ccc1C(=O)N1CCC(F)(F)CC1
b. CN(C)C(c1ccc(Nc2nn([C@H]3COCC[C@@H]3C#N)c3cc[nH]c(=O)c23)cc1)C(F)(F)F (single isomer, unassigned) [Example 1-18]
c. CN1Cc2cc(Nc3nn([C@H]4COCC[C@@H]4C#N)c4cc[nH]c(=O)c34)ccc2S1(=O)=O
d. CC(C)(C)S(=O)(=O)c1ccc(Nc2nn([C@H]3COCCC[C@@H]3C#N)c3cc[nH]c(=O)c23)cc1 (single isomer, unassigned)
# input With regard to IC50, arrange the entries in ascending order, please. Output spec: labels arranged per the requested ranking.
# output c, b, a, d

I. N#C[C@H]1CCOC[C@@H]1n1nc(Nc2ccc(C(N3CCNCC3)C(F)(F)F)cc2)c2c(=O)[nH]ccc21 (single isomer, unassigned) [Example 1-39]
II. CC(C)NC(c1ccc(Nc2nn([C@H]3COCC[C@@H]3C#N)c3cc[nH]c(=O)c23)cc1)C(F)(F)F (single isomer, unassigned) [Example 1-52]
# input Please indicate which entry, I or II , has the lower recorded IC50 value. Response format: the label of the selected entry.
# output II
(II: 0.08 nM, I: 0.13 nM)

I. N#C[C@H]1CCOCC1n1nc(Nc2ccc(C3(C(F)(F)F)CCNC3)cc2)c2c(=O)[nH]ccc21 (single isomer, unassigned) [Example 1-98]
II. CC1(C)CC1NC(c1ccc(Nc2nn([C@H]3COCC[C@@H]3C#N)c3cc[nH]c(=O)c23)cc1)C(F)(F)F (single isomer, unassigned) [Example 1-46]
# input For this pair, I and II , which shows a numerically higher IC50? Provide the label of your selected option as the answer.
# output II
